molecular target: HLA-A2402 (Homo sapiens, UniProt P04439, D101N/D140Y/D185E/E176V/E190D/F33S/G103R/G107R/I119L/I121M/I306V/K335N/L105A/L180Q/L300P/N151K/N90K/Q86E/Q94H/R106L/R138H/R89G/T104I/T345S/V100E/W191G/Y123F); experiment: cell-based; assay type: binding; conditions: HLA-A2402 HMy2.CIR cells; competitor peptide 5μM; 24 hours; flow cytometry
reported-metric: inhibition at 5 µM (%)
Form entry: value (%) — number only.

Would you mind telling me what inhibition at 5 µM value was observed for CC[C@H](C)[C@H](NC(=O)[C@H](CO)NC(=O)[C@@H]1CCCN1C(=O)[C@H](Cc1ccccc1)NC(=O)[C@H](Cc1ccccc1)NC(=O)[C@H](CC(=O)O)NC(=O)[C@H](CO)NC(=O)[C@@H]1CCCN1C(=O)[C@H](CC(C)C)NC(=O)[C@@H](N)Cc1ccccc1)C(=O)O [Epitope P31] ? 70.6

And the next one, CC[C@H](C)[C@H](NC(=O)[C@H](Cc1c[nH]cn1)NC(=O)[C@H](Cc1ccccc1)NC(=O)[C@H](Cc1c[nH]c2ccccc12)NC(=O)[C@H](CC(C)C)NC(=O)[C@@H](N)CC(C)C)C(=O)N[C@@H](CO)C(=O)N[C@@H](CS)C(=O)N[C@@H](CC(C)C)C(=O)O [Epitope P32] ? 0.7

---

Would you kindly list inhibition at 5 µM for each of these molecules?
molecular target: HLA-A3101 (Homo sapiens, UniProt P04439, A270S/D185E/E176V/E277Q/F33T/G231S/G80R/H175R/I121M/I218V/I322F/K168Q/L300P/L318F/M331R/P217A/Q94H/R138Q/T323A/T345S/T97I/V358M); experiment: Peptide competitive binding assay, transfected HMy2.CIR cells, reference ATFQFK(FITC)VER; settings: HLA-A3101 HMy2.CIR cells; competitor peptide 5μM; 24 hours; flow cytometry
Residues, ends and D or L forms follow the SMILES beside them.
Please state the figure in %; there is no need to write the unit.

Fill in: inhibition at 5 µM of CC(C)C[C@H](NC(=O)[C@H](CO)NC(=O)[C@H](Cc1ccccc1)NC(=O)[C@H](Cc1ccccc1)NC(=O)CNC(=O)[C@H](C)NC(=O)[C@@H](N)CCC(N)=O)C(=O)N[C@H](C(=O)N[C@@H](CCCCN)C(=O)O)[C@@H](C)O [Epitope P40] (H-QAGFFSLTK-OH; N-terminus and C-terminus assumed) is ___ 4.93

Item: CC[C@H](C)[C@H](NC(=O)[C@H](CO)NC(=O)[C@H](CO)NC(=O)[C@@H](NC(=O)[C@@H]1CCCN1C(=O)[C@@H](N)CO)[C@@H](C)CC)C(=O)N[C@@H](Cc1ccccc1)C(=O)N[C@@H](CO)C(=O)N[C@@H](CCCNC(=N)N)C(=O)O [Epitope P38] (H-SPISSIFSR-OH; N-terminus and C-terminus assumed) 4.04

Try the molecule CC(C)C[C@H](NC(=O)[C@H](CCCCN)NC(=O)[C@H](Cc1c[nH]cn1)NC(=O)[C@H](CCCNC(=N)N)NC(=O)[C@H](CS)NC(=O)CNC(=O)CNC(=O)[C@H](CC(C)C)NC(=O)[C@@H](N)C(C)C)C(=O)O [Epitope P36] (H-VLGGCRHKL-OH; N-terminus and C-terminus assumed) 4.82

And CC(C)C[C@H](NC(=O)[C@@H](NC(=O)[C@H](Cc1ccccc1)NC(=O)[C@@H](NC(=O)[C@@H](N)CCCCN)C(C)C)C(C)C)C(=O)NCC(=O)NCC(=O)N[C@@H](CS)C(=O)N[C@@H](CCCNC(=N)N)C(=O)O [Epitope P63] ? 35.4
